Tested on: 5 dpf larval zebrafish
Test: Zebrafish behavioral model of anesthesia, spontaneous movement (SM)
Format: in vivo
Details: Danio rerio, 120 h; 5 dpf zebrafish exposed to 3 μM propofol, Fig. 5d; read-out: IC50 (antagonism of propofol)
pIC50: −log10 of the molar value.

# entry smiles, pIC50
measured = [
    ("CC(C)c1ccc(C(C)C)c(F)c1", 4.60),
    ("CC(C)c1cccc(C(C)C)c1F", 4.43),
]
